Target: T1, cynomolgus CCR8 (cynomolgus, UniProt G7NYJ2 1-355)
T1 construct: whole, on cells
T1 sequence (G7NYJ2 entry or part of it): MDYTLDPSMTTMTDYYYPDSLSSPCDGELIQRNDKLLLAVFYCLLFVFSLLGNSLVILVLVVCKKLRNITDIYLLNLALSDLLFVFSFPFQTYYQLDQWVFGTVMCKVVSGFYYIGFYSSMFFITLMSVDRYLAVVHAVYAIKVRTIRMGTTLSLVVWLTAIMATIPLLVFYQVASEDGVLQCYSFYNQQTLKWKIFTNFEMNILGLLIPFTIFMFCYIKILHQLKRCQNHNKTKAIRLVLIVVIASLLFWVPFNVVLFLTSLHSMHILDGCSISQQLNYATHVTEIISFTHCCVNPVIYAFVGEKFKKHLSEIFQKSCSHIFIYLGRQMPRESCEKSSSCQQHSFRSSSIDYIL
Assay: FACS on HEK293-cynomolgus CCR8 cells
ENDPOINT: Max MFI (MFI)
Give the quantity in MFI, number only.

# BINDER, READOUT VALUE
data = [
    ("Hu149-14 (antibody, human IgG1, V domains shown, human IgG1) VH: EVQLVESGGGLVQPGGSLKLSCAASGFTFNTYAMNWVRQASGKGLEWVGRIRSKSNFYATAYAASVKGRFTISRDDSKNTAYLQMNSLKTEDTAVYYCTRGREYGSAYAMDYWGQGTLVTVSS VL: DIVMTQSPLSLPVTPGEPASISCRSSKSLLHSNANTYLYWFLQKPGQSPQLLIYRMSNLASGVPDRFSGSGSGTDFTLKISRVEAEDVGVYYCMQHLEYPLTFGGGTKVELK", "4.42e+06"),
    ("Hu149-13 (antibody, human IgG1, V domains shown, human IgG1) VH: EVQLVESGGGLVQPGGSLKLSCAASGFTFNTYAMNWVRQASGKGLEWVGRIRSKSNFYATAYAASVKGRFTISRDDSKNTAYLQMNSLKTEDTAVYYCTRGREYGRSYAMDYWGQGTLVTVSS VL: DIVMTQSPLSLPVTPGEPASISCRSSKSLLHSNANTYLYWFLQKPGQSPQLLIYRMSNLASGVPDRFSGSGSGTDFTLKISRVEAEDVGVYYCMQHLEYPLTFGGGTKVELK", "4.37e+06"),
    ("Hu149-15 (antibody, human IgG1, V domains shown, human IgG1) VH: EVQLVESGGGLVQPGGSLKLSCAASGFTFNTYAMNWVRQAPGKGLEWVGRIRSKSNFYATAYAASVKGRFTISRDDSKNTAYLQMNSLKTEDTAVYYCTRGRDYGSSYAMDYWGQGTLVTVSS VL: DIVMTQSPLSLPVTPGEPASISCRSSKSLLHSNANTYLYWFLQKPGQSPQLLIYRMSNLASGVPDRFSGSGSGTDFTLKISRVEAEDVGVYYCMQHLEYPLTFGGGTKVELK", "3.93e+06"),
]

Lookup: Recorded Max MFI for Hu149-23 (antibody, human IgG1, V domains shown, human IgG1) VH: EVQLVESGGGLVQPGGSLKLSCAASGFTFNTYAMNWVRQAPGKGLEWVGRIRSKSNFYATAYAASVKGRFTISRDDSKNTAYLQMNSLKTEDTAVYYCTRGREYGSSYAMDYWGQGTLVTVSS VL: DIVMTQSPLSLPVTPGEPASISCRSSKSLLHSNANTYLYWFLQKPGQSPQLLIYRMSNLASGVPDRFSGSGSGTDFTLKISRVEAEDVGVYYCMQHLKYPLTFGGGTKVELK , please?
Found: 4.32e+06

Lookup: Recorded Max MFI for Hu149-22 (antibody, human IgG1, V domains shown, human IgG1) VH: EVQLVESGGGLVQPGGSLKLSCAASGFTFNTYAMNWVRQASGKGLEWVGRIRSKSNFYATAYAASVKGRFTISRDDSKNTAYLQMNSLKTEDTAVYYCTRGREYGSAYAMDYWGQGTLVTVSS VL: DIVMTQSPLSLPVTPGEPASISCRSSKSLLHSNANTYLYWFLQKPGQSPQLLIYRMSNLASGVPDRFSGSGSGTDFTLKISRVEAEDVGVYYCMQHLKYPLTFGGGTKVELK , please?
Found: 4.25e+06
